Listed here: items and their measured IC50.
assay: Inhibition of CREB (unknown origin)-mediated gene transcription in HEK293T cells preincubated for 30 mins followed by forskolin addition measured after 5 hrs by luciferase reporter gene assay; type: cell-based; settings: Homo sapiens, HEK-293T
# unit: µM | format: bare number

O=[N+]([O-])c1ccc(Sc2cccc[n+]2[O-])c2nonc12	2.09
O=[N+]([O-])c1ccc(Sc2ccccn2)c2nonc12	9.42
O=[N+]([O-])c1ccc(Nc2ccc(Cl)cc2)c2nonc12	13.7

Q) Reported IC50, compound Nc1ccc(Nc2ccc(Cl)cc2)c2nonc12 : ____
A) 50

* * *

assay: Inhibition of CREB (unknown origin)-mediated gene transcription in HEK293T cells preincubated for 30 mins followed by forskolin addition measured after 5 hrs by luciferase reporter gene assay; format: cell-based; details: Homo sapiens, HEK-293T
pIC50: −log10 of the molar value.
Listed here: items and their measured pIC50.

Below, 2 compounds whose answers are already recorded.
O=C(Nc1ccc(Cl)cc1)c1ccc([N+](=O)[O-])c2nonc12	< 4.30
O=[N+]([O-])c1ccc(CNc2ccc(Cl)cc2)c2nonc12	< 4.30

Now let's try a different one.
Q) Reported pIC50, compound O=[N+]([O-])c1cc(NCc2cccc3nonc23)ccc1Cl : ____
A) < 4.30
